Measured fold induction at 5 µM, listed per entry.
# Tested on: VDR signaling (Cyp24A1 mRNA) in C3H10T1/2 cells
# method: Cyp24A1 mRNA up-regulation (qPCR) in C3H10T1/2 cells
# Format: cell-based, mouse
# reported conditions: Mus musculus, C3H 10T1/2, 5 μM with OHCs 5 μM, 24 h, relative to DMSO (set to 1.0)
Give your answer as a number; write no unit.

smiles data: C[C@H](COCC(C)(C)O)[C@H]1CC[C@H]2[C@@H](OC(=O)c3cc([N+](=O)[O-])cc([N+](=O)[O-])c3)CCC[C@]12C
test target: VDR signaling (Cyp24A1 mRNA) in C3H10T1/2 cells
fold induction at 5 µM: 131
--
smiles data: CC(C)COC[C@@H](C)[C@H]1CC[C@H]2[C@@H](OC(=O)c3cccc(O)c3)CCC[C@]12C
test target: VDR signaling (Cyp24A1 mRNA) in C3H10T1/2 cells
fold induction at 5 µM: 13.8
--
smiles data: COc1ccc(C(=O)O[C@H]2CCC[C@]3(C)[C@@H]([C@H](C)COCC(C)C)CC[C@@H]23)cc1
test target: VDR signaling (Cyp24A1 mRNA) in C3H10T1/2 cells
fold induction at 5 µM: 36.7

Field fold induction at 5 µM (entry C[C@H](COCC(C)(C)O)[C@H]1CC[C@H]2[C@@H](O)CCC[C@]12C ) reads 76.8

----------
# Test system: Hh signaling pathway (Ptch mRNA) in C3H10T1/2 cells
# method: Ptch mRNA down-regulation (qPCR) in C3H10T1/2 cells
# Type: cell-based
# reported conditions: Mus musculus, C3H 10T1/2, read-out: Ptch IC50
parameter: IC50 (µM)
Unit µM implied. Number only.

Short answer for C=C1CC[C@H](O)C/C1=C/C=C1\CCC[C@]2(C)[C@@H]([C@H](C)CCCC(C)C)CC[C@@H]12 : IC50 was 3.3

----------
# Test system: Hh signaling pathway (Gli1 mRNA) in C3H10T1/2 cells
# method: Gli1 mRNA down-regulation (qPCR) in OHC-stimulated C3H10T1/2 cells
# Assay type: cell-based, mouse
# reported conditions: Mus musculus, C3H 10T1/2, 5 μM with OHCs 5 μM, 24 h, relative Gli1 mRNA levels compared to OHCs (set to 100%)
parameter: mrna remaining at 5 µM
Hey, just the number and the unit after it is fine.

Solved cases below.
smiles data: CC(C)COC[C@@H](C)[C@H]1CC[C@H]2[C@@H](OC(=O)c3ccccc3)CCC[C@]12C
test target: Hh signaling pathway (Gli1 mRNA) in C3H10T1/2 cells
reported measurement: 56.8%
--
smiles data: CC(C)COC[C@@H](C)[C@H]1CC[C@H]2[C@@H](OC(=O)c3ccc(Cl)cc3)CCC[C@]12C
test target: Hh signaling pathway (Gli1 mRNA) in C3H10T1/2 cells
reported measurement: 23.5%
--
smiles data: CC(C)COC[C@@H](C)[C@H]1CC[C@H]2[C@@H](O)CCC[C@]12C
test target: Hh signaling pathway (Gli1 mRNA) in C3H10T1/2 cells
reported measurement: 36.8%
--
smiles data: COc1cccc(C(=O)O[C@H]2CCC[C@]3(C)[C@@H]([C@H](C)COCC(C)C)CC[C@@H]23)c1
test target: Hh signaling pathway (Gli1 mRNA) in C3H10T1/2 cells
reported measurement: 102%
--
smiles data: C[C@H](COCC(C)(C)O)[C@H]1CC[C@H]2[C@@H](OC(=O)c3ccc(O)cc3)CCC[C@]12C
test target: Hh signaling pathway (Gli1 mRNA) in C3H10T1/2 cells
reported measurement: 4.6%
--
smiles data: C[C@H](COCC(C)(C)O)[C@H]1CC[C@H]2[C@@H](OC(=O)c3ccc(Cl)cc3)CCC[C@]12C
test target: Hh signaling pathway (Gli1 mRNA) in C3H10T1/2 cells
reported measurement: 26.1%
--
smiles data: C[C@H](COCC(C)(C)O)[C@H]1CC[C@H]2[C@@H](OC(=O)c3cc(O)cc(O)c3)CCC[C@]12C
test target: Hh signaling pathway (Gli1 mRNA) in C3H10T1/2 cells
reported measurement: 1.7%
--
smiles data: CC(C)COC[C@@H](C)[C@H]1CC[C@H]2[C@@H](OC(=O)c3cc([N+](=O)[O-])cc([N+](=O)[O-])c3)CCC[C@]12C
test target: Hh signaling pathway (Gli1 mRNA) in C3H10T1/2 cells
reported measurement: 32.1%

Noted for C[C@H](COCC(C)(C)O)[C@H]1CC[C@H]2[C@@H](OC(=O)c3ccccc3)CCC[C@]12C : its mrna remaining at 5 µM reads 43.8%

The reported mrna remaining at 5 µM of the compound CC(C)COC[C@@H](C)[C@H]1CC[C@H]2[C@@H](OC(=O)c3ccc([N+](=O)[O-])cc3)CCC[C@]12C was 74.2%

The reported mrna remaining at 5 µM of the compound COc1cccc(C(=O)O[C@H]2CCC[C@]3(C)[C@@H]([C@H](C)COCC(C)(C)O)CC[C@@H]23)c1 was 62.3%

Entry C[C@H](COCC(C)(C)O)[C@H]1CC[C@H]2[C@@H](OC(=O)c3ccc([N+](=O)[O-])cc3)CCC[C@]12C ; mrna remaining at 5 µM = 54.6%

Quick note, mrna remaining at 5 µM for CC(C)COC[C@@H](C)[C@H]1CC[C@H]2[C@@H](OC(=O)c3cc(O)cc(O)c3)CCC[C@]12C landed at 2.4%

Reported mrna remaining at 5 µM ( C[C@H](COCC(C)(C)O)[C@H]1CC[C@H]2[C@@H](O)CCC[C@]12C ) = 42.7%

----------
# Test system: VDR signaling (Cyp24A1 mRNA) in C3H10T1/2 cells
# method: Cyp24A1 mRNA up-regulation (qPCR) in C3H10T1/2 cells
# Format: cell-based, mouse
# reported conditions: Mus musculus, C3H 10T1/2, 5 μM with OHCs 5 μM, 24 h, relative to DMSO (set to 1.0)
parameter: fold induction at 5 µM
Could you respond with only the numeric value?

# value of fold induction at 5 µM, VDR signaling (Cyp24A1 mRNA) in C3H10T1/2 cells, item CC(C)COC[C@@H](C)[C@H]1CC[C@H]2[C@@H](OC(=O)c3cc(N)cc(N)c3)CCC[C@]12C = 6.7

The measured fold induction at 5 µM that CC(C)COC[C@@H](C)[C@H]1CC[C@H]2[C@@H](OC(=O)c3ccccc3)CCC[C@]12C showed for VDR signaling (Cyp24A1 mRNA) in C3H10T1/2 cells is 35.7

----------
# Tested on: VDR signaling (Cyp24A1 mRNA) in C3H10T1/2 cells
# method: Cyp24A1 mRNA up-regulation (qPCR) in C3H10T1/2 cells
# Type: cell-based, mouse
# reported conditions: Mus musculus, C3H 10T1/2, 5 μM with OHCs 5 μM, 24 h, relative to DMSO (set to 1.0)
parameter: fold induction at 5 µM
Please reply with the number alone, leaving off any unit.

smiles data: CC(C)COC[C@@H](C)[C@H]1CC[C@H]2[C@@H](OC(=O)c3ccc(F)cc3)CCC[C@]12C
fold induction at 5 µM: 46.5

In plain terms, COc1ccc(C(=O)O[C@H]2CCC[C@]3(C)[C@@H]([C@H](C)COCC(C)(C)O)CC[C@@H]23)cc1 has a documented fold induction at 5 µM of 120

Memo: COc1cccc(C(=O)O[C@H]2CCC[C@]3(C)[C@@H]([C@H](C)COCC(C)(C)O)CC[C@@H]23)c1 , reported fold induction at 5 µM: 86.8

The compound identified as C[C@H](COCC(C)(C)O)[C@H]1CC[C@H]2[C@@H](OC(=O)c3cc(O)cc(O)c3)CCC[C@]12C registered its fold induction at 5 µM at 129

----------
# System: Hh signaling pathway (Gli1 mRNA) in C3H10T1/2 cells
# method: Gli1 mRNA down-regulation (qPCR) in OHC-stimulated C3H10T1/2 cells
# Type: cell-based, mouse
# reported conditions: Mus musculus, C3H 10T1/2, 5 μM with OHCs 5 μM, 24 h, relative Gli1 mRNA levels compared to OHCs (set to 100%)
# mrna remaining at 5 µM annotations
Quick note: give the figure in %, leave out the unit.

molecule: COc1ccc(C(=O)O[C@H]2CCC[C@]3(C)[C@@H]([C@H](C)COCC(C)(C)O)CC[C@@H]23)cc1O [Compound 4g]
parameter: mrna remaining at 5 µM
units label: %
reported measurement: 2.5

Per the record, CC(C)COC[C@@H](C)[C@H]1CC[C@H]2[C@@H](OC(=O)c3cccc(O)c3)CCC[C@]12C [Compound 3i] has mrna remaining at 5 µM of 6.1

The molecule identified as C[C@H](COCC(C)(C)O)[C@H]1CC[C@H]2[C@@H](OC(=O)c3cccc(O)c3)CCC[C@]12C [Compound 4h] registered its mrna remaining at 5 µM at 3.8

The molecule identified as CC(C)COC[C@@H](C)[C@H]1CC[C@H]2[C@@H](OC(=O)c3ccc(O)cc3)CCC[C@]12C [Compound 3k] registered its mrna remaining at 5 µM at 7.3

// mrna remaining at 5 µM value for C=C1CC[C@H](O)C/C1=C/C=C1\CCC[C@]2(C)[C@@H]([C@H](C)CCCC(C)C)CC[C@@H]12 [VD3, Vitamin D3] : 32.5

# mrna remaining at 5 µM of CC(C)COC[C@@H](C)[C@H]1CC[C@H]2[C@@H](OC(=O)c3ccc(F)cc3)CCC[C@]12C [Compound 3f] = 45.4

According to the records, this molecule C[C@H](COCC(C)(C)O)[C@H]1CC[C@H]2[C@@H](OC(=O)c3cc([N+](=O)[O-])cc([N+](=O)[O-])c3)CCC[C@]12C [Compound 4f] displays mrna remaining at 5 µM of 30.7

According to the records, this molecule COc1ccc(C(=O)O[C@H]2CCC[C@]3(C)[C@@H]([C@H](C)COCC(C)C)CC[C@@H]23)cc1 [Compound 3c] displays mrna remaining at 5 µM of 89.6

Briefly, mrna remaining at 5 µM measured for COc1ccc(C(=O)O[C@H]2CCC[C@]3(C)[C@@H]([C@H](C)COCC(C)(C)O)CC[C@@H]23)cc1 [Compound 4c] : 76.5

// mrna remaining at 5 µM value for CC(C)COC[C@@H](C)[C@H]1CC[C@H]2[C@@H](OC(=O)c3cc(N)cc(N)c3)CCC[C@]12C [Compound 3h] : 5.6
